Just for reference, patent US20040086502A1 is where these values come from.

Entries and their pKd values follow.
Molecular target: T1, VEGF(8-109) (UniProt P15692 214-315)
T1 construct: range 8-109; Covalently coupled to the BIACORE chip (EDC/NHS); also called vascular endothelial growth factor
T1 sequence (looked up): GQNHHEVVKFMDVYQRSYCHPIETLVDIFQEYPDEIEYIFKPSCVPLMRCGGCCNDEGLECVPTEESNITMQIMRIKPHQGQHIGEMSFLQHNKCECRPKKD
Assay: SPR (BIACORE-2000), Kd calculated as koff/kon
Procedure: BIACORE™ Analysis: The VEGF-binding affinities of Fab fragments were calculated from association and dissociation rate constants measured using a BIACORE™-2000 surface plasmon resonance system (BIACORE™, Inc., Piscataway, N.J.). A biosensor chip was activated for covalent coupling of VEGF using N-ethyl-N′-(3-dimethylaminopropyl)-carbodiimide hydrochloride (EDC) and N-hydroxysuccinimide (NHS) according to the supplier's (BIACORE™, Inc., Piscataway, N.J.) instructions. […]
FYI, pKd means -log10 of a concentration in mol per litre.

Here is how some binders turned out for pKd.
binder	pKd
Y0242-1 Fab (Fab, V domains shown, Clone from library YC-90, made on the Y0192 template; also called point mutant Y54W) VH: EVQLVESGGGLVQPGGSLRLSCAASGYTFTNYGMNWVRQAPGKGLEWVGWINTWTGEPTYAADFKRRFTFSLDTSKSTAYLQMNSLRAEDTAVYYCAKYPHYYGSSHWYFDVWGQGTL VL: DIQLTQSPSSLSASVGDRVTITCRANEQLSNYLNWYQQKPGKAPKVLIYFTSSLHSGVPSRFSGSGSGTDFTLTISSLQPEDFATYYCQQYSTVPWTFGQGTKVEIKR	8.74
Y0241-7 Fab (Fab, V domains shown, Clone from library YC-86, made on the Y0192 template; The text names point mutations only at T28 and F29; The printed stretch ends in GIN, so residue 34 may also differ from the parent; this change is not applied here) VH: EVQLVESGGGLVQPGGSLRLSCAASGYDWTNYGINWVRQAPGKGLEWVGWINTYTGEPTYAADFKRRFTFSLDTSKSTAYLQMNSLRAEDTAVYYCAKYPHYYGSSHWYFDVWGQGTL VL: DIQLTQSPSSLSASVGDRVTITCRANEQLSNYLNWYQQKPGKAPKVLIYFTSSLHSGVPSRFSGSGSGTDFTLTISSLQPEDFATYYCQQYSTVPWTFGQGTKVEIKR	8.52

Recall and state the measured pKd for Y0241-6 Fab (Fab, V domains shown, Clone from library YC-86, made on the Y0192 template; The text names point mutations only at T28 and F29; The printed stretch ends in GIN, so residue 34 may also differ from the parent; this change is not applied here) VH: EVQLVESGGGLVQPGGSLRLSCAASGYDYTNYGINWVRQAPGKGLEWVGWINTYTGEPTYAADFKRRFTFSLDTSKSTAYLQMNSLRAEDTAVYYCAKYPHYYGSSHWYFDVWGQGTL VL: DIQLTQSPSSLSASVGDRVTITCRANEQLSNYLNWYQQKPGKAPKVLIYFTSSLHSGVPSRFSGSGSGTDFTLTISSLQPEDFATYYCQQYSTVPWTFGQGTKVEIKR .
8.57

Recall and state the measured pKd for Y0261-6 Fab (Fab, V domains shown) VH: EVQLVESGGGLVQPGGSLRLSCAASGYTFTNYGMNWVRQAPGKGLEWVGWINTYTGEPTYAADFKRRFTFSLDTSKSTAYLQMNSLRAEDTAVYYCAKYPHYYLKDKKSHWYFDVWGQGTL VL: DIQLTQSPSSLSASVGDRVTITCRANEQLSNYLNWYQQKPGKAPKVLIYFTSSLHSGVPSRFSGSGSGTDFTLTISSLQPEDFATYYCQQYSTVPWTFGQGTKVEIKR .
9.22

Recall and state the measured pKd for Y0239-2 Fab (Fab, V domains shown) VH: EVQLVESGGGLVQPGGSLRLSCAASGYTFTNYGMNWVRQAPGKGLEWVGWINTYTGEPTYAADFKRRFTFSLDTSKSTAYLQMNSLRAEDTAVYYCAKYPHYYKNDKSSHWYFDVWGQGTL VL: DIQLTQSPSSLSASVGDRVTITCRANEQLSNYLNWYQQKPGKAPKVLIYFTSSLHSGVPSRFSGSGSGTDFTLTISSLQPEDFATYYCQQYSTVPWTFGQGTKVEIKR .
8.34

Recall and state the measured pKd for Y0240-1 Fab (Fab, V domains shown) VH: EVQLVESGGGLVQPGGSLRLSCAASGYTFTNYGMNWVRQAPGKGLEWVGWINTYTGEPTYAADFKRRFTFSLDTSKSTAYLQMNSLRAEDTAVYYCAKYPHYYLTDHKSHWYFDVWGQGTL VL: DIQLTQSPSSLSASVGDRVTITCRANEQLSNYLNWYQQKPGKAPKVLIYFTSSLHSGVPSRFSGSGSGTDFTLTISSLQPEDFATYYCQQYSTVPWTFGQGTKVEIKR .
9.30

Recall and state the measured pKd for Y0313-2 Fab (Fab, V domains shown, Combines the CDR H3 insertion of Y0239-19 (VNERK) with T28D/N31H; also called CDR combination variant Y0313-2; Insert-Fab Y0313-2) VH: EVQLVESGGGLVQPGGSLRLSCAASGYDFTHYGMNWVRQAPGKGLEWVGWINTYTGEPTYAADFKRRFTFSLDTSKSTAYLQMNSLRAEDTAVYYCAKYPHYYVNERKSHWYFDVWGQGTL VL: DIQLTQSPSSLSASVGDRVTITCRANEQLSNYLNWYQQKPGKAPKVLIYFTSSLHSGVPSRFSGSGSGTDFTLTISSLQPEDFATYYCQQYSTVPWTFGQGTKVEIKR .
9.44

Recall and state the measured pKd for Y0239-12 Fab (Fab, V domains shown) VH: EVQLVESGGGLVQPGGSLRLSCAASGYTFTNYGMNWVRQAPGKGLEWVGWINTYTGEPTYAADFKRRFTFSLDTSKSTAYLQMNSLRAEDTAVYYCAKYPHYYAHEKKSHWYFDVWGQGTL VL: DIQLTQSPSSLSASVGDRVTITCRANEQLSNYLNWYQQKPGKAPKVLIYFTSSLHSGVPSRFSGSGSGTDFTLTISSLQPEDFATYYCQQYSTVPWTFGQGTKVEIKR .
9.22

Recall and state the measured pKd for Y0239-9 Fab (Fab, V domains shown, Only three residues stand in place of G104, although the library was designed with four or five) VH: EVQLVESGGGLVQPGGSLRLSCAASGYTFTNYGMNWVRQAPGKGLEWVGWINTYTGEPTYAADFKRRFTFSLDTSKSTAYLQMNSLRAEDTAVYYCAKYPHYYLGESSHWYFDVWGQGTL VL: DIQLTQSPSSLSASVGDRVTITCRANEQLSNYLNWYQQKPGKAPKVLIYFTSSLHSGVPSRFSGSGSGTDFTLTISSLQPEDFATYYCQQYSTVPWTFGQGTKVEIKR .
9.30

Recall and state the measured pKd for Y0239-8 Fab (Fab, V domains shown) VH: EVQLVESGGGLVQPGGSLRLSCAASGYTFTNYGMNWVRQAPGKGLEWVGWINTYTGEPTYAADFKRRFTFSLDTSKSTAYLQMNSLRAEDTAVYYCAKYPHYYLRDGRSSHWYFDVWGQGTL VL: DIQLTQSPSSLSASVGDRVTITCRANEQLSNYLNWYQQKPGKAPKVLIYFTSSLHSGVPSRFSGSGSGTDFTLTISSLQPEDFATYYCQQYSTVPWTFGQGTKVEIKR .
9.30
